Molecular target: T1, human CD47 on CCRF-CEM cells (human, UniProt Q08722 19-323)
T1 construct: whole, on cells
Test: flow cytometry competition on CCRF-CEM cells; blocked ligand hSIRPα-mFC, detected with PE goat anti-mouse IgG Fc
Quantity: IC50 (read off the curve)

# count of solved cases: 4
[[record]]
binder = "7A11H42 (antibody, V domains shown, also called CD47 antibody) VH: QVQLVQSGAEVKKPGSSVKVSCKASGSSFTSNWMNWVRQAPGQGLEWIGMIHPSDSETRLNQKFQGRVTITADKSTSTAYMELSSLRSEDTAVYYCARGTTVVDAFAYWGQGTTVTVSS VL: DIQMTQSPSSLSASVGDRVTMTCKSSQSLLNSRTRKNYLAWYQQKPGKAPKLLIYWASTRESGVPSRFSGSGSGTDFTLTISSLQPEDFATYYCKQSYNLRTFGGGTKLEIK"
value = "~2 nM"

[[record]]
binder = "7A11H22 (antibody, V domains shown, also called CD47 antibody) VH: QVQLVQSGAEVKKPGASVKVSCKASGSSFTSNWMNWVRQAPGQGLEWIGMIHPSDSETRLNQKFKDRATLTVDKSTSTAYMELSSLRSEDTAVYYCARGTTVVDAFAYWGQGTTVTVSS VL: DIQMTQSPSSLSASVGDRVTMTCKSSQSLLNSRTRKNYLAWYQQKPGKAPKLLIYWASTRESGVPSRFSGSGSGTDFTLTISSLQPEDFATYYCKQSYNLRTFGGGTKLEIK"
value = "~2 nM"

[[record]]
binder = "7A11H11 (antibody, V domains shown, also called CD47 antibody) VH: QVQLVQPGAEVKKPGASVKLSCKASGSSFTSNWMNWVRQAPGQGLEWIGMIHPSDSETRLNQKFKDRATLTVDKSTSTAYMELSSPRSEDTAVYYCARGTTVVDAFAYWGQGTTVTVSS VL: DIVMTQSPDSLAVSLGERATMNCKSSQSLLNSRTRKNYLAWYQQKPGQPPKLLIYWASTRESGVPDRFSGSGSGTDFTLTISSLQAEDVAVYYCKQSYNLRTFGGGTKLEIK"
value = "~2 nM"

[[record]]
binder = "7A11H32 (antibody, V domains shown, also called CD47 antibody) VH: QVQLVQSGAEVKKPGSSVKVSCKASGSSFTSNWMNWVRQAPGQGLEWIGMIHPSDSETRLNQKFKDRVTITADKSTSTAYMELSSLRSEDTAVYYCARGTTVVDAFAYWGQGTTVTVSS VL: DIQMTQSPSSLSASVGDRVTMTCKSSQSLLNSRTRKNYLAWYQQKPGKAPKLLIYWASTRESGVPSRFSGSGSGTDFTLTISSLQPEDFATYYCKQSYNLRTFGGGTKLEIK"
value = "~2 nM"


Pending binder:
response.value for 7A11H12 (antibody, V domains shown, also called CD47 antibody) VH: QVQLVQPGAEVKKPGASVKLSCKASGSSFTSNWMNWVRQAPGQGLEWIGMIHPSDSETRLNQKFKDRATLTVDKSTSTAYMELSSPRSEDTAVYYCARGTTVVDAFAYWGQGTTVTVSS VL: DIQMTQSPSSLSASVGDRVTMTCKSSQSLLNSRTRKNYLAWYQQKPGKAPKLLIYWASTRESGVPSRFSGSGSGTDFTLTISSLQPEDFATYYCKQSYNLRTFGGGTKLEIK (field: IC50 (read off the curve)) = ~0.9 nM

Data origin: patent US20230312709A1
